# TESTED_ON: human DGKα (Homo sapiens, UniProt P23743)
# Sequence (P23743 whole entry): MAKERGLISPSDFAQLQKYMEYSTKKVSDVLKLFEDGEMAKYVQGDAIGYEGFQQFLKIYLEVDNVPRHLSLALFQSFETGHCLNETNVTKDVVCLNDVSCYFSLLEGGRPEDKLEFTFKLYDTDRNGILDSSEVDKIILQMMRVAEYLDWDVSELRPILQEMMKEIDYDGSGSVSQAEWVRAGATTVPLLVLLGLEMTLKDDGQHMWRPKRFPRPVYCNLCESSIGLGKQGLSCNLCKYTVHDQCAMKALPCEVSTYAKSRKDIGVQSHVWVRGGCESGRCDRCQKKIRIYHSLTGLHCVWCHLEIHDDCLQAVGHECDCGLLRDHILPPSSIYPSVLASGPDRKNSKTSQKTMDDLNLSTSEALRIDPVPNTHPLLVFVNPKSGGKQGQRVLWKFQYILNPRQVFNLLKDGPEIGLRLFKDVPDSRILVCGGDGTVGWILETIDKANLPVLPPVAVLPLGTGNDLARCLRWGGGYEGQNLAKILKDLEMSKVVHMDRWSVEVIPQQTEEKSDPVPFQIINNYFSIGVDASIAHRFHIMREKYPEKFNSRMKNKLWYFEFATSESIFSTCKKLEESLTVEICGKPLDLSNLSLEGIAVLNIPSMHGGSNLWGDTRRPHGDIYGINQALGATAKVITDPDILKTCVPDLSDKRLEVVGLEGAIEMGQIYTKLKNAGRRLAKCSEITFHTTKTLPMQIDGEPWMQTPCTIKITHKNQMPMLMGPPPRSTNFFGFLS
# ASSAY_NOTES: DGKα Biochemical Activity Assay (ADP-Glo)
# REPORTED_CONDITIONS: recombinant DGKα 1 nM, 100 μM ATP, 18:1 DAG/POPS/octylglucoside micelles, 1 hour at 25° C.; geometric mean; read-out: HTBS DGKa 1X ATP KM IC50
pIC50: −log10 of the molar value.
Use rule met when the recorded pIC50 is no lower than 8; use rule not met when it is lower.

# ITEM_SMILES, LABEL_CLASS
records = [
    ("Cc1nnc2nc(N3CCCc4c(C#CC(C)(C)O)cc(F)cc43)c3c(F)cccc3n12", "rule not met"),
    ("Fc1ccc(F)c2c1c(N1CCOCc3c(C#CC4(C(F)(F)F)CC4)cccc31)nc1nncn12", "rule met"),
    ("Cc1nnc2nc(N(CC(F)F)c3cc(F)cc(C#CC4CCOCC4)c3)c3c(F)cccc3n12", "rule not met"),
    ("Cc1nnc2nc(N(CC(F)F)c3cc(F)cc(C#CC(C)(C)c4ccccn4)c3)c3c(F)c(F)ccc3n12", "rule not met"),
    ("Cc1nnc2nc(N(CC(F)F)c3ccnc(C#CC4(C)CC4)c3)c3c(F)c(F)ccc3n12", "rule met"),
    ("Cc1nnc2nc(N3CCOCc4c(C#CC(C)(C)NC(=O)OC(C)(C)C)cccc43)c3c(F)cccc3n12", "rule met"),
    ("Cc1cc(F)cc2c(N(CC(F)F)c3cc(F)cc(C#CC(C)(C)O)c3)nc3nncn3c12", "rule not met"),
    ("Cc1nnc2nc(N3CCOCc4c(C#CC(C)(C)NC(=O)C(C)(C)C(C)(F)F)cccc43)c3c(F)cccc3n12", "rule met"),
    ("Cc1nnc2nc(N3CCOCc4c3ccnc4C#CC3(C(F)(F)F)CC3)c3c(F)cccc3n12", "rule met"),
    ("OC1(C#Cc2cccc3c2CCCN3c2nc3nncn3c3ccc(F)c(F)c23)CCCCC1", "rule met"),
    ("Cc1nnc2nc(N3CCOCc4c(C#CC(C)(C)NC(=O)c5cn(C)nc5C(F)F)cccc43)c3c(F)cccc3n12", "rule not met"),
    ("CC(F)(F)C1(C#Cc2cncc3c2CCCN3c2nc3nncn3c3ccc(F)c(F)c23)CC1", "rule not met"),
    ("Cc1nnc2nc(N3CCOCc4c3ccnc4C#CC(C)(C)NC(=O)C3(C(F)(F)F)CC3)c3c(F)cccc3n12", "rule not met"),
    ("Cc1nnc2nc(N3CCOCc4c(C#CC(C)(C)C#N)cccc43)c3c(F)cccc3n12", "rule met"),
]

---

This listing pairs molecules with measured IC50.
# TESTED_ON: human DGKα (Homo sapiens)
# ASSAY_NOTES: DGKα Biochemical Activity Assay (ADP-Glo)
# REPORTED_CONDITIONS: recombinant DGKα 1 nM, 100 μM ATP, 18:1 DAG/POPS/octylglucoside micelles, 1 hour at 25° C.; geometric mean; read-out: HTBS DGKa 1X ATP KM IC50

# ITEM_SMILES, IC50, nM
measured = [
    ("Cc1nnc2nc(N3CCCCc4c(C#CC5(C(F)(F)F)CC5)cncc43)c3c(F)c(F)ccc3n12", 28.5),
    ("Cc1nnc2nc(N3CCOCc4c(N5CCC(C)(C#N)CC5)cccc43)c3c(F)cccc3n12", 7.42),
    ("Cc1nnc2nc(N(CC(F)F)c3cccc(C#CC4(C(F)F)CC4)c3F)c3c(F)cccc3n12", 5.01),
    ("Cc1nnc2nc(N3CCOCc4c3ccnc4C#CC(C)(C)C(F)(F)F)c3c(F)cccc3n12", 4.52),
]

---

compounds and their reported pIC50
# TESTED_ON: human DGKα (Homo sapiens, UniProt P23743)
# ASSAY_NOTES: DGKα Biochemical Activity Assay (ADP-Glo);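 further: luminescent detection of ADP produced as DGKα phosphorylates DAG to phosphatidic acid, IC50 from four-parameter nonlinear curve fit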
# REPORTED_CONDITIONS: recombinant DGKα 1 nM, 100 μM ATP, 18:1 DAG/POPS/octylglucoside micelles, 1 hour at 25° C.; geometric mean; read-out: HTBS DGKa 1X ATP KM IC50
pIC50: −log10 of the molar value.

# COMPOUND, pIC50
measured = [
    ("Cc1nnc2nc(N3CCCc4c(C#CC(C)(C)C#N)cccc43)c3cc(F)ccc3n12 [Example 244]", 7.99),
    ("Cc1nnc2nc(N3CCN(C)Cc4c(C#CC(C)(C)O)cccc43)c3cc(F)ccc3n12 [Example 170]", 7.29),
    ("Cc1nnc2nc(N(CC(F)F)c3cc(F)cc(C#CC4(C)COC4)c3)c3cc(F)ccc3n12 [Example 24]", 7.82),
    ("Cc1nnc2nc(N3CCCCc4c(C#CC5(C(F)F)CC5)cncc43)c3c(F)c(F)ccc3n12 [Example 8]", 7.75),
    ("Cc1nnc2nc(N3CCN(C)Cc4c(C#CC5(C(F)(F)F)CC5)cccc43)c3c(F)cccc3n12 [Example 164]", 7.89),
    ("CC(C)(O)C#Cc1cccc2c1CCCN2c1nc2nncn2c2ccccc12 [Example 174]", 7.57),
]

---

# TESTED_ON: human DGKα (Homo sapiens)
# ASSAY_NOTES: DGKα Biochemical Activity Assay (ADP-Glo)
# REPORTED_CONDITIONS: recombinant DGKα 1 nM, 100 μM ATP, 18:1 DAG/POPS/octylglucoside micelles, 1 hour at 25° C.; geometric mean; read-out: HTBS DGKa 1X ATP KM IC50

# COMPOUND, DISPLAY_UNIT, IC50
measured = [
    ("Cc1nnc2nc(N3CCCc4c(C#Cc5ccnc(C#N)c5)cccc43)c3cc(F)ccc3n12 [Example 229]", "nM", 16.7),
    ("Cc1nnc2nc(N(CC(F)F)c3cccc(C#CC(C)(C)C(F)F)c3F)c3cc(F)ccc3n12 [Example 55]", "nM", 21.6),
    ("Fc1cccc2c1c(N1CCCOc3c(C#CC4(C(F)(F)F)CC4)cccc31)nc1nncn12 [Example 121]", "nM", 22.8),
    ("Cc1nnc2nc(N3CCN(C)Cc4c(C#CC(C)(C)C(F)(F)F)cccc43)c3c(F)c(F)ccc3n12 [Example 168]", "nM", 10.4),
    ("Cc1nnc2nc(N3CCCc4c(C#CC5(C(F)F)CC5)cccc43)c3c(Cl)cccc3n12 [Example 126]", "nM", 17.2),
    ("Cc1nnc2nc(N3CCCCc4c(C#CC5CC5)cncc43)c3c(F)c(F)ccc3n12 [Example 1]", "nM", 15.1),
    ("Cc1nnc2nc(N3CCCc4c(C#Cc5ccn[nH]5)cccc43)c3cc(F)ccc3n12 [Example 224]", "nM", 15.1),
    ("Cc1nnc2nc(N3CCCc4c(N5CCN(C(=O)OC(C)(C)C)CC5)cccc43)c3c(F)cccc3n12 [Example 161]", "nM", 87.1),
]

---

# TESTED_ON: human DGKα (Homo sapiens)
# ASSAY_NOTES: DGKα Biochemical Activity Assay (ADP-Glo)
# REPORTED_CONDITIONS: recombinant DGKα 1 nM, 100 μM ATP, 18:1 DAG/POPS/octylglucoside micelles, 1 hour at 25° C.; geometric mean; read-out: HTBS DGKa 1X ATP KM IC50
Consider the reported IC50 of an entry and match it to a band in zone 1 (below 7 nM), zone 2 (7 nM to below 10 nM), zone 3 (10 nM or more)

# COMPOUND, LABEL_CLASS
measured = [
    ("Fc1cc(C#CC2(C(F)(F)F)CC2)cc(N(CC(F)F)c2nc3nncn3c3c(Cl)cc(F)cc23)c1 [Example 48]", "zone 1"),
    ("Cc1nnc2nc(N3CCOCc4c(C#CC5(C)CC5)cccc43)c3cc(C#N)ccc3n12 [Example 109]", "zone 2"),
    ("CC(C)(C#Cc1cccc2c1COCCN2c1nc2nncn2c2ccc(F)c(F)c12)C(F)(F)F [Example 204]", "zone 1"),
    ("CC1(C#Cc2cncc3c2CCCN3c2nc3nncn3c3ccc(F)c(F)c23)CC1 [Example 99]", "zone 2"),
    ("Cc1nnc2nc(N3CCCc4c(C#CC5(C(F)(F)F)CC5)cncc43)c3c(F)c(F)ccc3n12 [Example 88]", "zone 3"),
    ("COc1cncc(C#Cc2cccc3c2CCCN3c2nc3nnc(C)n3c3ccc(F)cc23)c1 [Example 219]", "zone 3"),
    ("Cc1nnc2nc(N3CCOCc4c(C#CC(C)(C)C(=O)NC(C)(C)C(F)(F)F)cccc43)c3c(F)c(F)ccc3n12 [Example 63]", "zone 3"),
    ("Cc1nnc2nc(N3CCCc4c(C#CC(C)(C)NC(=O)OC(C)(C)C)cccc43)c3c(F)cccc3n12 [Example 150]", "zone 3"),
    ("Cc1nnc2nc(N3CCOCc4c(C#CC(C)(C)NC(=O)C(C)(C)C(F)(F)F)cccc43)c3c(F)cccc3n12 [Example 144]", "zone 1"),
    ("Cc1nnc2nc(N3CCCc4c(C#CC5CCCCO5)cccc43)c3cc(F)ccc3n12 (stereo not shown) [Example 130]", "zone 1"),
    ("Cc1cnc(C(C)(C)C#Cc2cccc3c2COCCN3c2nc3nnc(C)n3c3ccc(F)c(F)c23)o1 [Example 66]", "zone 3"),
    ("Cc1nnc2nc(N3CCCc4c(C#Cc5cnc(C(F)(F)F)nc5)cccc43)c3c(F)cccc3n12 [Example 220]", "zone 3"),
    ("Cc1nnc2nc(N(CC(F)F)c3cc(F)cc(C#CC4CC(F)(F)C4)c3)c3c(F)c(F)ccc3n12 [Example 237]", "zone 2"),
]
